Form field: EC50 (one value per entry).
# System: HIV
# PROCEDURE_SUMMARY: inhibition of HIV-induced cytopathic effect in MT-4 cells (MTT method)
# Assay type: cell-based
# TEST_PARAMETERS: Human immunodeficiency virus 1, MT4; HIV-infected MT-4 cells; 1000 CCID50; 4 or 5 day incubation at 37° C.; MTT method; read-out: ED50: Effective concentration for the inhibition of the proliferation of HIV by 50%
MEASURED_ENDPOINT: EC50

>>> data_value("C/C=C/Cn1c(Sc2cc(C)cc(C)c2)c(C(C)C)c(=O)[nH]c1=O")
"< 0.009 µg/mL"
>>> data_value("C=CCn1c(Sc2cc(C)cc(C)c2)c(CC)c(=O)[nH]c1=O")
"< 0.032 µg/mL"
>>> data_value("CC/C=C/Cn1c(Sc2cc(C)cc(C)c2)c(CC)c(=O)[nH]c1=O")
"< 0.32 µg/mL"
>>> data_value("CCc1c(Sc2cc(C)cc(C)c2)n(C/C=C/c2ccccc2)c(=O)[nH]c1=O")
"< 0.009 µg/mL"

###

Form field: EC50 (one value per entry).
# System: HIV
# PROCEDURE_SUMMARY: inhibition of HIV-induced cytopathic effect in MT-4 cells (MTT method)
# Type: cell-based
# TEST_PARAMETERS: Human immunodeficiency virus 1, MT4; HIV-infected MT-4 cells; 1000 CCID50; 4 or 5 day incubation at 37° C.; MTT method; read-out: ED50: Effective concentration for the inhibition of the proliferation of HIV by 50%
MEASURED_ENDPOINT: EC50

>>> data_value("CCc1c(Oc2cc(C)cc(C)c2)n(C/C=C/c2ccccc2)c(=O)[nH]c1=O")
"< 0.23 µg/mL"
>>> data_value("Cc1cc(C)cc(Oc2c(C(C)C)c(=O)[nH]c(=O)n2CC#Cc2ccccc2)c1")
"< 0.009 µg/mL"
>>> data_value("COC(=O)/C=C/Cn1c(Sc2cc(C)cc(C)c2)c(C(C)C)c(=O)[nH]c1=O")
"< 0.009 µg/mL"
>>> data_value("CCc1c(C(=O)c2cc(C)cc(C)c2)n(CC=CC(=O)OC(C)C)c(=O)[nH]c1=O")
"< 0.01 µg/mL"
>>> data_value("CC#CCn1c(C(=O)c2cc(C)cc(C)c2)c(CC)c(=O)[nH]c1=O")
"< 0.032 µg/mL"
>>> data_value("C#CCn1c(Cc2cc(C)cc(C)c2)c(CC)c(=O)[nH]c1=O")
"< 0.32 µg/mL"
>>> data_value("CCc1c(C(=O)c2cc(C)cc(C)c2)n(C/C=C/CCl)c(=O)[nH]c1=O")
"< 0.009 µg/mL"

###

# PROCEDURE_SUMMARY: cytotoxicity: viability of mock-infected MT-4 host cells (MTT method)
# Format: cell-based
# TEST_PARAMETERS: human, mt-4 cells, read-out: CD50: Cytotoxic concentration that causes death of cells by 50%
Form field: CC50 (one value per entry).
MEASURED_ENDPOINT: CC50 (µg/mL)

>>> data_value("CC#CCn1c(Oc2cc(C)cc(C)c2)c(C(C)C)c(=O)[nH]c1=O [Example 11]")
39.9
>>> data_value("CCc1c(C(=O)c2cc(C)cc(C)c2)n(C/C=C/CCl)c(=O)[nH]c1=O [Example 47]")
6.7
>>> data_value("CCc1c(C(=O)c2cc(C)cc(C)c2)n(CC=CC(=O)OC)c(=O)[nH]c1=O [Example 8]")
27.2
>>> data_value("Cc1cc(C)cc(Sc2c(C(C)C)c(=O)[nH]c(=O)n2CC#Cc2ccccc2)c1 [Example 3]")
7.94
>>> data_value("C/C=C/Cn1c(Oc2cc(C)cc(C)c2)c(CC)c(=O)[nH]c1=O [Example 10]")
19.4
>>> data_value("CCc1c(C(=O)c2cc(C)cc(C)c2)n(C/C=C\\c2ccccc2)c(=O)[nH]c1=O [Example 69]")
8.67
>>> data_value("CC/C=C/Cn1c(Oc2cc(C)cc(C)c2)c(CC)c(=O)[nH]c1=O [Example 62]")
8.05
>>> data_value("COC(=O)/C=C/Cn1c(C(=O)c2cc(C)cc(C)c2)c(C(C)C)c(=O)[nH]c1=O [Example 54]")
30.1
>>> data_value("C=CCn1c(Cc2ccccc2)c(CC)c(=O)[nH]c1=O [Example 4]")
52.5
>>> data_value("COC(=O)/C=C/Cn1c(Sc2cc(C)cc(C)c2)c(C(C)C)c(=O)[nH]c1=O [Example 30]")
17.7
>>> data_value("CCc1c(Sc2ccccc2)n(CC=C(C)C)c(=O)[nH]c1=O [Example 15]")
11.3
>>> data_value("CCc1c(Sc2cc(C)cc(C)c2)n(C/C=C/C(=O)OC)c(=O)[nH]c1=O [Example 21]")
41.4
>>> data_value("CC/C=C/Cn1c(Sc2cc(C)cc(C)c2)c(CC)c(=O)[nH]c1=O [Example 2]")
8.73
>>> data_value("Cc1cc(C)cc(C(=O)c2c(C(C)C)c(=O)[nH]c(=O)n2C/C=C/CN=[N+]=[N-])c1 [Example 74]")
8.59
>>> data_value("Cc1cc(C)cc(C(=O)c2c(C(C)C)c(=O)[nH]c(=O)n2CC#Cc2ccccc2)c1 [Example 56]")
6.76
>>> data_value("CCc1c(Sc2cc(C)cc(C)c2)n(CC#Cc2ccccc2)c(=O)[nH]c1=O [Example 26]")
4.93
>>> data_value("CC#CCn1c(C(=O)c2cc(C)cc(C)c2)c(CC)c(=O)[nH]c1=O [Example 49]")
5.2
>>> data_value("CCc1c(Oc2cc(C)cc(C)c2)n(C/C=C/CO)c(=O)[nH]c1=O [Example 83]")
25.5
>>> data_value("C/C=C/Cn1c(Oc2cc(C)cc(C)c2)c(C(C)C)c(=O)[nH]c1=O [Example 64]")
9.89
>>> data_value("CCc1c(C(=O)c2cc(C)cc(C)c2)n(CC=CC(=O)OC(C)C)c(=O)[nH]c1=O [Example 73]")
4.85
>>> data_value("C#CCn1c(C(=O)c2cc(C)cc(C)c2)c(CC)c(=O)[nH]c1=O [Example 48]")
36.4
>>> data_value("CCc1c(Sc2cc(C)cc(C)c2)n(C/C=C/CO)c(=O)[nH]c1=O [Example 78]")
29
>>> data_value("CCc1c(C(=O)c2cc(C)cc(C)c2)n(C/C=C/CN=[N+]=[N-])c(=O)[nH]c1=O [Example 79]")
8.2

Source: patent US5747500A
